Here the recorded Geo Mean Fluorescence is given for each entry.
Biological target: T1, human TrkA receptor on the cell surface (human, UniProt P04629 33-796)
T1 construct: whole, on cells; PC12-hTrkA: high density; also called hTrkA; huTrkA
T1 sequence (P04629 33-796): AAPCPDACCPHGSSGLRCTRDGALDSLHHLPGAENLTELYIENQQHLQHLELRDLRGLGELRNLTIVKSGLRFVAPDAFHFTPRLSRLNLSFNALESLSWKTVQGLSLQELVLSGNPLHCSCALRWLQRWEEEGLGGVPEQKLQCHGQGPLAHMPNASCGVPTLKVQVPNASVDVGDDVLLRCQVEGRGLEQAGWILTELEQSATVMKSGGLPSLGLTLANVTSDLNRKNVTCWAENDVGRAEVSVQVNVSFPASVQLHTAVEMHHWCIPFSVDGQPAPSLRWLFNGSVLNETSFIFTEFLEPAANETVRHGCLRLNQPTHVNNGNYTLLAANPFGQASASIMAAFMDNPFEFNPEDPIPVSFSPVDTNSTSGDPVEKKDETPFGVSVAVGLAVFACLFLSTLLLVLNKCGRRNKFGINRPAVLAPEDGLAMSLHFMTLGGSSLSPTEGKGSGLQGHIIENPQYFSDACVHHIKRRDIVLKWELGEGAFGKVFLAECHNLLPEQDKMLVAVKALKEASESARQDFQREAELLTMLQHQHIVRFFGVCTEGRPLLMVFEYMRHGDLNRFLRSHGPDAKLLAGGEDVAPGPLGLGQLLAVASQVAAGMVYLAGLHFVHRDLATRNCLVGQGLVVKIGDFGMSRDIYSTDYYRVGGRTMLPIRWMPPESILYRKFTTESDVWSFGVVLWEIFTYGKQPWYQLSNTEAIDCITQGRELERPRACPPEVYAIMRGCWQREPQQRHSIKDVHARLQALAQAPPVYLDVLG
Experiment: flow cytometry on TF-1 cells, 4 µg/ml
Set-up: reference not given here
Write no unit; give the number alone.

I'd like to know its Geo Mean Fluorescence. The binder in question is BXhVH3VL2 (antibody, human IgG1, V domains shown, Human IgG1 constant regions (IgG1 expression vectors); COS-7 supernatant; also called hVH3/hVL2) VH: EVQLLESGGGLVQPGGSLRLSCAASGFTFSTYTMSWVRQAPGKRLEWVAYISKGGGSTYYPDTVKGRFTISRDNSKNTLYLQMNSLRAEDTAVYYCARGAMYGNDFFYPMDYWGQGTTVTVSS VL: EIVLTQSPATLSLSPGERATLSCSASSSVSYMHWYQQKPGQSPRLLIYTTSNLASGIPSRFSGSGSGTDFTLTISSLEPEDAADYYCHQWSSYPWTFGQGTKLEIK
7.1
